Reported Kd is given for each of the following binders.
# subjectOfTest: T1, SCRM ACTL (405-494) (Arabidopsis thaliana, UniProt Q9LSE2 405-494)
# T1 construct: SCREAM (SCRM, ICE1), Arabidopsis thaliana, At3G26744, ACT-like domain, residues 405-494; also called SCRM ACTL domain; source: E. coli BL21, purified (glutathione resin, thrombin, Superdex-200); not shown: GST, N-terminal, cleaved
# T1 sequence (looked up): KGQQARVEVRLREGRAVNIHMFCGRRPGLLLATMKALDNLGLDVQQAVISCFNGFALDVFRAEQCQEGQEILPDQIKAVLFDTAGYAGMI
# protocolText: ITC; Malvern PEAQ-ITC, 25 °C, PBS pH 7.4; 150 μM SCRM ACTL/SCRM L484F ACTL injected into 15 μM SPCH ACTL/MUTE ACTL
# conditionContext: both partners purified
metricName: Kd (µM)

{"columns": ["binder", "resultUnit", "recordedValue"],
 "data": [
  ["SPCH-ACTL (285-364) (domain or fragment, Arabidopsis thaliana, UniProt Q700C7 285-364, looked up, source: E. coli BL21, purified (glutathione resin, thrombin, Superdex-200); not shown: GST, N-terminal, cleaved) LADVEVKFSGANVLLKTVSHKIPGQVMKIIAALEDLALEILQVNINTVDETMLNSFTIKIGIECQLSAEELAQQIQQTFC", "µM", 1.2],
  ["MUTE-ACTL (114-202) (domain or fragment, Arabidopsis thaliana, UniProt Q9M8K6 114-202, looked up, MUTE, Arabidopsis thaliana, ACT-like domain, residues 114-202; source: E. coli BL21, purified (glutathione resin, thrombin, Superdex-200); not shown: GST, N-terminal, cleaved) HANVEAKISGSNVVLRVVSRRIVGQLVKIISVLEKLSFQVLHLNISSMEETVLYFFVVKIGLECHLSLEELTLEVQKSFVSDEVIVSTN", "µM", 5.1]
]}
